- method.description: Solubility
- Type: physicochemical
- setup.conditions: 1:5 ethanol:PBS, pH 7.2, aqueous with cosolvent or surfactant or cyclodextrin; read-out: solubility in a 1:5 solution of ethanol:PBS, pH 7.2

molecule: C=C1/C(=C\C=C2/CCC[C@]3(C)[C@@H]([C@H](C)CCCC(C)(C)O)CC[C@@H]23)C[C@@H](O)C[C@@H]1O [calcitriol, 1α,25-dihydroxyvitamin D3]
solubility: ~150 µg/mL
